# Protocol details: Coupled enzyme assay (ADH, with and without MSAD): hydratase and hydratase/decarboxylase activity and product profile of Cg10062 and variants
# Type: biochemical
# Settings: ACA 0.5 mM, pH 8; enzyme final concentration differs per variant (0.025-1.50 mg mL^−1), rates not directly comparable
Property label: Rate in the absence of MSAD (µM/min)
API: value field is a number in µM/min; no unit string.

In: What value of measured Rate in the absence of MSAD is listed for Y103F: Cg10062 variant with Y103F mutation, SEQ ID NO: 31 and 69 (protein, Cg10062(Y103F) from Corynebacterium glutamicum codon-optimized for Escherichia coli) PTYTCWSQRIRISREAKQRIAEAITDAHHELAHAPKYLVQVIFNEVEPDSYFIAAQSASENHIWVQATIRSGRTEKQKEELLLRLTQEIALILGIPNEEVWVFITEIPGSNMTEYGRLLMEPGEEEKWFNSLPEGLRERLTELEGSSE ?
Out: 43
